Data origin, for the record: PubChem BioAssay (NCI)

Tested on: SF-539 CNS
Test: NCI-60 one-dose screen, 48 h (100 = growth as untreated, 0 = no growth, -100 = all killed)
Settings: 10 µM unless noted
Compounds without any hit were thinned out: in the full panel of roughly 83,000, 20% have a hit.

{"MOLECULE": "O=CN1N=C(c2ccc(F)cc2)CC1c1cccc(Nc2ccnc3cc(C(F)(F)F)ccc23)c1 (centres undefined)", "growth [%]": 77.5}
{"MOLECULE": "O=c1[nH]nc(-c2ccc(Br)cc2)c2sc(NC(=S)Nc3ccc(Cl)cc3)nc12", "growth [%]": 103}
{"MOLECULE": "COc1ccc(/C=C/C(=O)Nc2ncnc3nc[nH]c23)cc1", "growth [%]": 100}
{"MOLECULE": "CSc1nc(-c2cccs2)c2c(N)[nH]nc2n1", "growth [%]": 93}
{"MOLECULE": "CC(C)Cc1cc(CNC(=O)C2[C@H]3CN(C(=O)c4ccccc4)C[C@@H]23)nn1-c1ccccc1 (some centres undefined)", "growth [%]": 96.8}
{"MOLECULE": "CCCCn1c(=O)c(/C=C/C(=O)/C=C/c2ccc(OC)cc2)cc2cc(Cl)ccc21", "growth [%]": 91.8}
{"MOLECULE": "N#Cc1ccc(N2Cc3cc(Cl)ccc3OC3=C2C(=O)N(Cc2ccc(F)cc2)C3=O)cc1", "growth [%]": -65.7}
{"MOLECULE": "C#CCN(CCCOc1ccc(Cl)cc1Cl)CCCSC(=O)CCCCCN1/C(=C\\C=C2/CCCC(/C=C/C3=[N+](CCCCCC(=O)[O-])c4ccccc4C3(C)C)=C2Cl)C(C)(C)c2ccccc21", "growth [%]": -50.2}
{"MOLECULE": "COc1cc(/C=C/C(=O)/C=C/c2cc3ccc(Cl)cc3n(Cc3ccccc3)c2=O)ccc1O", "growth [%]": 9.94}
{"MOLECULE": "N#CC(C#N)=C1NC(c2ccccc2)=C(c2ccccc2)C(c2ccccc2Cl)=C1C#N", "growth [%]": 108}
{"MOLECULE": "CNc1cccc2c1C(=O)c1cccc(N)c1C2=O", "growth [%]": 85.7}
{"MOLECULE": "CCOC(=O)/C=C1\\SC(=Nc2ccc(C#N)cc2)N(CCN2C(=O)/C(=C/C(=O)OCC)SC2=Nc2ccc(C#N)cc2)C1=O", "growth [%]": 41.6}
{"MOLECULE": "CCCn1c2cc(OCc3cn(-c4ccc(Br)cc4)nn3)ccc2c2ccnc(C)c21", "growth [%]": 36.4}
{"MOLECULE": "COC(=O)c1cncc(C(=O)Nc2ccc(-n3cnc4ccccc43)cc2)c1", "growth [%]": 95.9}
{"MOLECULE": "Cc1ccc(-c2nc(C#N)c(S(=O)(=O)N(C)CCO)o2)cc1", "growth [%]": 43}
{"MOLECULE": "CCOC(=O)c1ccc(Nc2ncnc3ccc(NC(=O)c4ccccc4)cc23)cc1", "growth [%]": 101}
{"MOLECULE": "Nc1ccccc1NC(=O)c1ccc(CSc2nc(N3CCOCC3)c3cccn3n2)cc1", "growth [%]": 15.2}
{"MOLECULE": "COc1ccc2[nH]c(-c3ccccc3)c(C=C(C#N)C#N)c2c1", "growth [%]": 14}
{"MOLECULE": "N#CC1C(c2ccc(Cl)cc2)=Nc2c(c(-c3ccccc3)nn2-c2ccccc2)C12C(=O)Nc1ccc(Cl)cc12 (centres undefined)", "growth [%]": 43.8}
